# systemUnderTest: HA of virus A/Chick/Germany/N/49 (H10) (influenza A virus (H10))
# testDetails: cell-based or functional assay
measurementType: Neutralization titer SK50

CR8017 (antibody, V domains shown) VH: EVQLVETGGDLVQPGGSLRLSCSASEFSFSSYWMSWVRQAPGKGLEWVANMKQDGSEKYYVDSVKGRFTISRDNAKNSLYLQMNSLRGEDTAVYYCARGSCDDSWTGCHDAFDI VL: SSELTQDPAVSVALGQTVRITCQGDSLRSYYASWYQQKPGQAPVLVIYAKTNRPSGIPDRFSGSTSGNTASLTITGAQAEDEADYYCNSRDSSGNHVV
> 40 µg/mL

Here's the next entry for you.
Query :: What measured Neutralization titer SK50 goes with CR8003 (antibody, V domains shown) VH: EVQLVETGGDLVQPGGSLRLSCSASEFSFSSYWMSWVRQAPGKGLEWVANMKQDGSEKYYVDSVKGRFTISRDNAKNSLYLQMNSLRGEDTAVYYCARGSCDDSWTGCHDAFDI VL: VLTQPPSVSVAPGQTARIACGGNNIGSKSVHWYQQKPGQAPVLVVYDDSARPSGIPERFSGSNSGNTATLTISRVEAGDEADYYCQVWESGSDLRLL ?
Result :: > 40 µg/mL
